Values were extracted from PubChem BioAssay AID1996.

- measurementConditions: buffer; pH 7.4; 200.0 µM
The reader will find reported solubility kinetic values listed item by item below.
Express it in µg/mL; write the number only.

INSERT INTO measurements (molecule, recordedmeasurement) VALUES
  ('COc1c(C(=O)Nc2nccs2)ccc2ccccc12', 17),
  ('CCC(=O)N=c1ccn(C2=Nc3ccccc3NC2=C(C#N)C#N)cc1', 30.9),
  ('NS(=O)(=O)c1ccc(NC(=O)c2ccc(S(=O)(=O)N3CCCCC3)cc2)cc1', 2.1),
  ('CCOC(=O)C1CCC(CNCc2ccccc2C)CC1.Cl (configuration not stated)', 44.3),
  ('COc1ccc(CC(=O)N(Cc2ccccc2)C(C)C)cc1', 40.7);

Proceeding to the next molecule to report its solubility kinetic.
Sample `Cc1nc2ccccc2n1Cc1ccc(Cl)cc1` — what was its solubility kinetic?
24.9

* * *

- measurementConditions: buffer; pH 7.4; 200.0 µM
So basically: solubility kinetic at 3 µg/mL or higher? That is Met. Lower than 3 µg/mL? That is Not met.

Solved entries:
INSERT INTO measurements (compound, assignedlabel) VALUES
  ('Cc1cc(C)c2oc(C(=O)NCc3ccccc3)cc(=O)c2c1', 'Not met'),
  ('CCN(C(=O)CSc1ncccn1)c1cccc2ccccc12', 'Met');

Would you say `Cc1ccc([N+](=O)[O-])cc1NC(=O)C1CCCC1` shows solubility kinetic at minimum 3 µg/mL?
Met

Would you say `COc1cc(C(=S)N2CCCC2)ccc1OCc1ccccc1` shows solubility kinetic at minimum 3 µg/mL?
Not met

Would you say COc1ccc(N(CC(=O)NC2CCS(=O)(=O)C2)S(=O)(=O)c2cc(C)ccc2C)cc1 (stereo unspecified) shows solubility kinetic at minimum 3 µg/mL?
Met

Would you say `COc1ccc(CN2C(=O)c3ccccc3C2=O)cc1C(=O)O` shows solubility kinetic at minimum 3 µg/mL?
Met

Would you say `Cc1ccc(N(C)S(=O)(=O)c2cccc(C(=O)N3CCN(Cc4ccccc4)CC3)c2)cc1` shows solubility kinetic at minimum 3 µg/mL?
Met

* * *

- measurementConditions: buffer; pH 7.4; 200.0 µM
recordedEndpoint: solubility kinetic (µg/mL)
Express it in µg/mL; write the number only.

Examples with their reported solubility kinetic follow.
INSERT INTO assay_data (molecule, recordedmeasurement) VALUES
  ('Cc1cc(SCC(=O)N2CCCC2=O)nc2c(C)cccc12', 2.3),
  ('Cc1ccccc1C(=O)N1CCC(C(=O)NC2CCCCCC2)CC1', 48.6),
  ('CC(C)C(OC(=O)c1ccc(Cl)nc1)C(=O)NC1CCCCC1 (configuration not stated)', 29.7),
  ('O=C(CSc1ccccc1)NCCc1ccc(F)cc1', 34.9),
  ('O=C1NC(=Nc2ccccc2)S/C1=C\c1ccccc1', 0.8);

Proceeding to the next molecule to report its solubility kinetic.
Sample `O=C(NC1CCN(C(=S)Nc2ccccc2)CC1)C1CCCCC1` — what was its solubility kinetic?
2.1

* * *

- measurementConditions: buffer; pH 7.4; 200.0 µM
recordedEndpoint: solubility kinetic

INSERT INTO assay_data (molecule, recordedmeasurement) VALUES
  ('Cc1ccc(S(=O)(=O)N2CCCC2c2cccnc2)cc1 (stereo not given)', '> 45.4 µg/mL');

Sample `O=C(NCc1ccco1)/C(=C\C=C\c1ccccc1)NC(=O)c1ccco1` — what was its solubility kinetic?
> 54.4 µg/mL

Sample `O=S(=O)(Cc1noc(-c2ccc(OC(F)(F)F)cc2)n1)c1ccc(F)cc1` — what was its solubility kinetic?
< 0.4 µg/mL
